Data origin: paper PMC10796410

Assay: Plasma pharmacokinetics of olaparib in rats after a single oral dose, alone or with metformin (UPLC-MS/MS, non-compartmental)
Assay type: in vivo, Wistar rats
Settings: male, Wistar, rat, plasma, po, 100 mg/kg, rat plasma; IMET+OLA: metformin 100 mg/kg b.w. + olaparib 100 mg/kg b.w. oral single dose; n = 8; mean ± SD
Excerpt: All applicable international, national, and/or institutional guidelines for the care and use of animals were followed. […] The maximum plasma concentration (Cmax) and the time to reach the Cmax (tmax) were obtained directly from the measured values. […]
readout.name: Tmax (h)
Write the number in h without appending the unit.

Ask | Entry O=C(c1cc(Cc2n[nH]c(=O)c3ccccc23)ccc1F)N1CCN(C(=O)C2CC2)CC1 has what Tmax?
Reply | 1.11

* * *

experiment: Plasma pharmacokinetics of olaparib in rats after a single oral dose, alone or with metformin (UPLC-MS/MS, non-compartmental); assay type: in vivo, Wistar rats; details: male, Wistar, rat, plasma, po, 100 mg/kg, rat plasma; IMET+OLA: metformin 100 mg/kg b.w. + olaparib 100 mg/kg b.w. oral single dose; n = 8; mean ± SD
readout.name: AUC(0-t) (ng·h/mL)
Write the number in ng·h/mL without appending the unit.

Ask | Entry O=C(c1cc(Cc2n[nH]c(=O)c3ccccc23)ccc1F)N1CCN(C(=O)C2CC2)CC1 [olaparib, Olaparib] has what AUC(0-t)?
Reply | 28300

* * *

test: Plasma pharmacokinetics of metformin in rats after a single oral dose, alone or with olaparib (HPLC-UV, non-compartmental); type: in vivo, Wistar rats; conditions: male, Wistar, rat, plasma, oral, 100 mg/kg, t 6 h; IIMET (metformin alone); group mean; read-out: Cmet, S (group mean)
readout.name: concentration at 6 h
The reply must contain the numeric value and, after it, the unit.

Ask | Entry CN(C)C(=N)N=C(N)N has what concentration at 6 h?
Reply | 156 ng/mL

* * *

Assay: Plasma pharmacokinetics of olaparib in rats after a single oral dose, alone or with metformin (UPLC-MS/MS, non-compartmental)
Type: in vivo, Wistar rats
Conditions: male, Wistar, rat, plasma, po, 100 mg/kg, rat plasma; IMET+OLA: metformin 100 mg/kg b.w. + olaparib 100 mg/kg b.w. oral single dose; n = 8; mean ± SD
Description: All applicable international, national, and/or institutional guidelines for the care and use of animals were followed. […] The maximum plasma concentration (Cmax) and the time to reach the Cmax (tmax) were obtained directly from the measured values. […]
readout.name: Cmax (ng/mL)
Write the number in ng/mL without appending the unit.

Ask | Entry O=C(c1cc(Cc2n[nH]c(=O)c3ccccc23)ccc1F)N1CCN(C(=O)C2CC2)CC1 has what Cmax?
Reply | 9420

* * *

assay: Plasma pharmacokinetics of metformin in rats after a single oral dose, alone or with olaparib (HPLC-UV, non-compartmental); type: in vivo, Wistar rats; conditions: male, Wistar, rat, plasma, oral, 100 mg/kg, t 24 h; IIMET (metformin alone); group mean; read-out: Cmet, S (group mean)
readout.name: concentration at 24 h (ng/mL)
Write the number in ng/mL without appending the unit.

Ask | Entry CN(C)C(=N)N=C(N)N has what concentration at 24 h?
Reply | 112

* * *

experiment: Plasma pharmacokinetics of olaparib in rats after a single oral dose, alone or with metformin (UPLC-MS/MS, non-compartmental); assay type: in vivo, Wistar rats; conditions: male, Wistar, rat, plasma, oral, 100 mg/kg, t 4 h; IIIOLA (olaparib alone); group mean; read-out: Cave_ola
readout.name: concentration at 4 h (ng/mL)
Write the number in ng/mL without appending the unit.

Ask | Entry O=C(c1cc(Cc2n[nH]c(=O)c3ccccc23)ccc1F)N1CCN(C(=O)C2CC2)CC1 [olaparib, Olaparib] has what concentration at 4 h?
Reply | 528
